The measurements presented in this section are drawn from the NIST ThermoML archive (doi:10.1021/je300938w).

# experimentalDetails: wn = mass fraction of the nth substance listed
# runConditions: 318.15 K; 101 kPa; Liquid; Vibrating tube method; w1 = 0.15
Numbers after ± are expanded uncertainties.
outcomeMeasure: mass density
Mention the unit after the number when you answer.

Query :: Consider the compound shown here: CC(O)CN (centres undefined) [1-amino-2-propanol] + O What is its recorded mass density?
Result :: 991.681 ± 0.063 kg/m3

Query :: Form field: reported mass density of OCCNCCO [diethanolamine] + O
Result :: 1007.2 ± 0.046 kg/m3

Query :: Endpoint output: mass density of CC(O)CN(CC(C)O)CC(C)O (centres undefined) [triisopropanolamine] + O . Value?
Result :: 999.498 ± 0.17 kg/m3

Query :: Find the recorded mass density belonging to CC(O)CNCC(C)O (centres undefined) [N-(2-hydroxypropyl)-2-hydroxy-1-propanamine] + O and report it.
Result :: 998.951 ± 0.062 kg/m3
